- Tested on: CCRF-CEM
- method-notes: Growth inhibition of human CCRF-CEM cells after 48 hrs by sulforhodamine B assay
- Format: functional
parameter: log10(GI50) (log10 of the value in nM)
Short version: log10 scale, GI50, nM.

IN: // returns reported log10(GI50) for input COc1ccc(/C(C#N)=C/c2ccc3c(c2)OCCO3)cc1OC
OUT: 3.58

IN: // repeat for COc1ccc(/C=C(\C#N)c2ccc3c(c2)OCO3)c(OC)c1 and report
OUT: 3.19

IN: Request: COc1ccc(/C=C(\C#N)c2ccc3c(c2)OCO3)cc1
OUT: 2.40

IN: What about N#C/C(=C\c1cc2ccccc2s1)c1ccc2c(c1)OCO2 ?
OUT: 1.70

IN: Another compound to check: COc1cc(/C(C#N)=C/c2ccc3c(c2)OCCO3)cc(OC)c1OC
OUT: 2.32

IN: Check N#C/C(=C\c1cccc2ccccc12)c1ccc2c(c1)OCO2 too.
OUT: 3.56

----------
- method-notes: Growth inhibition of human RPMI8226 cells after 48 hrs by sulforhodamine B assay
- Assay type: functional
- protocol-conditions: RPMI-8226, 48 h
parameter: log10 of GI50 (log10 of the value in µM)
Recorded GI50 (log10, µM)

IN: Give its log10 of GI50 value. Item: COc1cc(/C(C#N)=C/c2ccc3c(c2)OCCO3)cc(OC)c1OC
OUT: -1.22

IN: // next record COc1ccc(/C=C/c2cc(OC)c(OC)c(OC)c2)cc1
OUT: 0.81

IN: Try this molecule next: N#C/C(=C\c1cccc2ccccc12)c1ccc2c(c1)OCO2
OUT: 0.65

IN: Moving on to N#C/C(=C\c1cc2ccccc2s1)c1ccc2c(c1)OCO2
OUT: -0.72

IN: Further, for COc1ccc(/C=C(\C#N)c2ccc3c(c2)OCO3)cc1 ?
OUT: -0.31

IN: Now the molecule COc1ccc(/C=C(\C#N)c2ccc3c(c2)OCO3)c(OC)c1
OUT: 0.51

IN: One more molecule: COc1ccc(/C=C(\C#N)c2ccc3c(c2)OCO3)c2ccccc12
OUT: 0.59

IN: What do you get for COc1ccc(/C(C#N)=C/c2ccc3c(c2)OCCO3)cc1OC ?
OUT: 0.68

----------
- method-notes: Growth inhibition of human UO31 cells at 10 uM after 48 hrs by sulforhodamine B assay
- Assay type: functional
- protocol-conditions: UO-31, 48 h, values are per cent of control
Provide the reported growth, % of control at 10 µM of each item.

IN: Query: growth, % of control at 10 µM; subject: N#C/C(=C\c1cccc2ccccc12)c1ccc2c(c1)OCO2
OUT: 80.3%

IN: Please answer likewise for COc1ccc(/C=C(\C#N)c2ccc3c(c2)OCO3)c(Cl)c1OC
OUT: 74.9%

IN: Please do the same for N#C/C(=C\c1cc(Br)cc(Br)c1)c1ccc2c(c1)OCO2 as well.
OUT: 76.5%

IN: Can you handle COc1ccc(/C=C(\C#N)c2ccc3c(c2)OCO3)c(OC)c1 next?
OUT: 46.7%

IN: Likewise for COc1ccc(/C=C(\C#N)c2ccc3c(c2)OCO3)cn1 ?
OUT: 82.3%

IN: Queued: N#C/C(=C\c1ccc2c(c1)OCO2)c1ccc2c(c1)OCO2
OUT: 86.7%

----------
- method-notes: Growth inhibition of human PC3 cells after 48 hrs by sulforhodamine B assay
- Assay type: functional
- protocol-conditions: PC-3, 48 h
parameter: GI50 (µM)
Only the number, expressed in µM, is required.

IN: Could you share which GI50 value was measured for COc1ccc(/C=C(\C#N)c2ccc3c(c2)OCO3)cc1 ?
OUT: 0.32

IN: Next molecule: COc1ccc(/C=C/c2cc(OC)c(OC)c(OC)c2)cc1
OUT: 3.22
